Where do the numbers come from? From the supplement of paper PMC6555819.

test system: RARa homodimer (NR concentration 270 nM); experiment: PBM binding z-score (relative to random genomic background probes); higher = stronger binding; sequences stand for … in GC…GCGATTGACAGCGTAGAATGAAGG
measure-name: PBM binding z-score
Reply with the value as a number alone.

Would you please look over these solved cases?
{"sequence-input": "TCATATAGGTAATACAGGTGAAAGTAGGCATCTA", "PBM binding z-score": 1.69}
{"sequence-input": "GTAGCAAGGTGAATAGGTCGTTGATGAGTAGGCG", "PBM binding z-score": -0.0167}

Prompt: Any idea what PBM binding z-score was measured for "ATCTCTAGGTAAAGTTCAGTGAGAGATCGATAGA" ?
Completion: 0.975

Prompt: // query PBM binding z-score value for entry "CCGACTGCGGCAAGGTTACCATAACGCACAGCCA"
Completion: 0.0538

Prompt: Need PBM binding z-score of "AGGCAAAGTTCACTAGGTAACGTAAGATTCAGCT" , thanks.
Completion: 1.73

Prompt: Fill in: PBM binding z-score of "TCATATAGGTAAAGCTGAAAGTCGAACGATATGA" is ___
Completion: -0.464

Prompt: Using the record for "TGTATGAGGTTATAAGATCAGGGAACGTTGCAAA" , report its PBM binding z-score.
Completion: 0.679
